Ref: ChEMBL document CHEMBL1770117

Biological target: Metabotropic glutamate receptor 5 (Rattus norvegicus)
Experiment: Positive allosteric modulator activity at rat mGlu5 receptor expressed in HEK293A cells assessed as increase in glutamate induced response
Format: cell-based, HEK293-A
Sequence (P31424 whole entry): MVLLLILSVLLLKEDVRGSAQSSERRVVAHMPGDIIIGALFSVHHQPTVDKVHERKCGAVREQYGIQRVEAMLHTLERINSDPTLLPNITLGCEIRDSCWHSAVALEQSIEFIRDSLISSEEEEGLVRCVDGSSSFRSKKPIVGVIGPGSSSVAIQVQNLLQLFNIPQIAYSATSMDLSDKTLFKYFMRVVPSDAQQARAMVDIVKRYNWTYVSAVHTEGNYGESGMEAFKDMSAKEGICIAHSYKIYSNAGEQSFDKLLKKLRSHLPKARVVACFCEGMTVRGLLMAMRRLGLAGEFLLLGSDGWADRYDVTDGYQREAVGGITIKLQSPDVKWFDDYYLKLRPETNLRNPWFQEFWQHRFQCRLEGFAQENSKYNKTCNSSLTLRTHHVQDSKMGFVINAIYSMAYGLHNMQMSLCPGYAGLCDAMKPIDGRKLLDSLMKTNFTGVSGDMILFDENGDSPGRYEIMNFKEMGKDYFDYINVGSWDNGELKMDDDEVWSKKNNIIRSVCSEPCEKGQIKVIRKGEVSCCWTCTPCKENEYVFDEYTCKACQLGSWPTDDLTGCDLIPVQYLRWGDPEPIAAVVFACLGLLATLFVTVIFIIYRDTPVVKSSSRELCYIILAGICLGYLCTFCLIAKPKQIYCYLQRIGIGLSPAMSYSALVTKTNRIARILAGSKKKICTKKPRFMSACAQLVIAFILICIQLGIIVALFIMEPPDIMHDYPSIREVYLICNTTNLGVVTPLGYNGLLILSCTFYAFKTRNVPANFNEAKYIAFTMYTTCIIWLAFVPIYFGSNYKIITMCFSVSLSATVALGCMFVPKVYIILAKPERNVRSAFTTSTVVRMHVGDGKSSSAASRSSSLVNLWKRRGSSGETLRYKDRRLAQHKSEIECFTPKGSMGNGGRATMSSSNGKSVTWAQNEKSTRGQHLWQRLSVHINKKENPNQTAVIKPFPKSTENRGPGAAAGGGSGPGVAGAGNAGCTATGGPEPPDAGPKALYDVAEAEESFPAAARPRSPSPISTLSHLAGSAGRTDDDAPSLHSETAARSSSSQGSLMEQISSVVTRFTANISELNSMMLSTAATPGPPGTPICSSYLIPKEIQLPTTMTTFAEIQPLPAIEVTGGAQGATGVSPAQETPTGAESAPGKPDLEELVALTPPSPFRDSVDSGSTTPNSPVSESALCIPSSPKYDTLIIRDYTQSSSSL
EXPERIMENTAL READOUT: EC50 (nM)

SMILES INPUT | TARGET OR SYSTEM | ASSAY VALUE
O=C(c1ccc(F)cc1F)N1CCC[C@H](c2nc(-c3ccccn3)no2)C1 | Metabotropic glutamate receptor 5 (Rattus norvegicus) | 240
O=C(c1ccc(F)cc1)N1CCC[C@H](c2nc(-c3cccs3)no2)C1 | Metabotropic glutamate receptor 5 (Rattus norvegicus) | 170

###

Quick reference for pIC50 among some molecules
Molecular target: Metabotropic glutamate receptor 5 (Rattus norvegicus)
Assay: Partial antagonist activity at mGluR5 receptor expressed in HEK293A cells assessed as inhibition of glutamate-induced calcium flux preincubated for 140 secs before glutamate challenge by calcium fluorescence assay
Assay type: functional, cell-based, HEK293-A
Sequence (P31424 whole entry, looked up): as the sequence (P31424 whole entry) above
pIC50: −log10 of the molar value.

SMILES INPUT | pIC50
Cc1cccc(-c2noc([C@H]3CCCCN3C(=O)C3CCCC3)n2)c1 | 6.22
Cc1cccc(-c2noc([C@H]3CCCCN3C(=O)C3CC3)n2)c1 | 6.55
